Tested target: G protein-coupled receptor 119 (GPR-119) (Mesocricetus auratus, UniProt A0A1U8CD06)
Construct: hamster-derived β-cells containing G protein-coupled receptor 119 (GPR-119), HIT-T15 cells; host or cells: HIT-T15 (hamster pancreatic β-cells)
Sequence (A0A1U8CD06 1-334): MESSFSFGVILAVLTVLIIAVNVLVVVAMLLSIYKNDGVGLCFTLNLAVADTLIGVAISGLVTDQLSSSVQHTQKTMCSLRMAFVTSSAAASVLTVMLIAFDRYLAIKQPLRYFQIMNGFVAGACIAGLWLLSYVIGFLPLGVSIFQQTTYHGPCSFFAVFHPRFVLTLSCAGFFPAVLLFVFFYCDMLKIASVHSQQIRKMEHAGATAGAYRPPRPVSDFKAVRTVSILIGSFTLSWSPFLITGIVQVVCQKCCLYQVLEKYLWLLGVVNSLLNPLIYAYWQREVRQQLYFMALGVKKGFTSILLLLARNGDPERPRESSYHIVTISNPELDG
Assay overview: Evaluation of cAMP activity in HIT-T15 cells (HTRF cAMP dynamic kit)
Type: cell-based, hamster
Protocol conditions: cAMP activation, 1 h at 37° C., six concentrations, read-out: EC50
Protocol: To check whether the cyclohexene derivatives according to the present invention activate cyclic adenosine monophosphate (cAMP), experiments were carried out, as follows. The HIT-T15 cells were plated on a 96-well plate at 60,000 cells per well. […] The cyclic adenosine monophosphate (cAMP) activity was measured according to the manufacturer's instruction using a cAMP dynamic kit commercially available from Cis Bio Inc. (Bedford, Mass.). […] Fluorescence was read in Flex Station (Molecular Devices). […]
Structures can show the parent of a compound that is named as a salt.
// reported pEC50 per item
# pEC50 is unitless: minus log10 of the molar concentration; print number only

[in] Please report the recorded pEC50 for CC(C)c1noc(N2CCC(COc3ccc(C4=CCC(C(=O)NCC(F)F)CC4)nc3)CC2)n1 (stereo not shown) .
[out] 6.80

[in] What do you have for CC(C)c1noc(N2CCC(COc3ccc(C4=CCC(C(=O)N5CCCC5)CC4)cc3)CC2)n1 (stereo not shown) ?
[out] 7.26

[in] Here is the next molecule: CCc1cnc(N2CCC(COc3ccc(C4=CCC(C(=O)N5CC[C@H](CO)C5)CC4)cc3)CC2)nc1 (stereo partly shown) [Example 158, hydrochloride]
[out] 7.60

[in] Similarly, CCc1cnc(N2CCC(COc3ccc(C4=CCC(C(=O)NCC(C)(C)CO)CC4)cc3)CC2)nc1 (stereo not shown) ?
[out] 7.42

[in] // same read-out, input: CC(C)(C)OC(=O)N1CCC(COc2ccc(C3=CCC(C(=O)N4CCSCC4)CC3)cn2)CC1 (stereo not shown)
[out] 7.60

[in] Same again, this time with C[C@H](CO)NC(=O)C1CC=C(c2ccc(OCC3CCN(C(=O)OC(C)(C)C)CC3)cc2)CC1 (stereo partly shown)
[out] 7.19

[in] And what about the molecule CCc1cnc(N2CCC(COc3ccc(C4=CCC(C(=O)N5CCC(=O)C5)CC4)cc3)CC2)nc1 (stereo not shown) ?
[out] 7.92

[in] And for CC(C)c1noc(N2CCC(COc3ccc(C4=CCC(C(=O)NCCC(=O)N5CCC[C@H]5C(N)=O)CC4)cc3F)CC2)n1 (stereo partly shown) ?
[out] 6.46

[in] Same again, this time with CCc1cnc(N2CCC(COc3ccc(C4=CCC(C(=O)N5CCC[C@@H]5CO)CC4)cc3)CC2)nc1 (stereo partly shown)
[out] 7.51

[in] Record: CCc1cnc(N2CCC(COc3ccc(C4=CCC(C(=O)N(C)CCCO)CC4)cc3)CC2)nc1 (stereo not shown)
[out] 7.68

[in] // repeat for CC(C)c1noc(N2CCC(COc3ccc(C4=CCC(C(=O)N[C@@H](C)CO)CC4)cc3)CC2)n1 (stereo partly shown) and report
[out] 6.96

[in] Then what about the molecule COC(=O)CNC(=O)C1CC=C(c2ccc(OCC3CCN(c4nc(C(C)C)no4)CC3)c(F)c2)CC1 (stereo not shown) ?
[out] 6.72

[in] Next molecule up: CC(C)c1noc(N2CCC(COc3ccc(C4=CCC(C(=O)N5CCOCC5)CC4)cc3)CC2)n1 (stereo not shown)
[out] 7.74
